assay system: phosphorylated EGFR (pEGFR) (Homo sapiens, UniProt P00533)
Construct: endogenous in cells
Sequence (P00533 25-1210): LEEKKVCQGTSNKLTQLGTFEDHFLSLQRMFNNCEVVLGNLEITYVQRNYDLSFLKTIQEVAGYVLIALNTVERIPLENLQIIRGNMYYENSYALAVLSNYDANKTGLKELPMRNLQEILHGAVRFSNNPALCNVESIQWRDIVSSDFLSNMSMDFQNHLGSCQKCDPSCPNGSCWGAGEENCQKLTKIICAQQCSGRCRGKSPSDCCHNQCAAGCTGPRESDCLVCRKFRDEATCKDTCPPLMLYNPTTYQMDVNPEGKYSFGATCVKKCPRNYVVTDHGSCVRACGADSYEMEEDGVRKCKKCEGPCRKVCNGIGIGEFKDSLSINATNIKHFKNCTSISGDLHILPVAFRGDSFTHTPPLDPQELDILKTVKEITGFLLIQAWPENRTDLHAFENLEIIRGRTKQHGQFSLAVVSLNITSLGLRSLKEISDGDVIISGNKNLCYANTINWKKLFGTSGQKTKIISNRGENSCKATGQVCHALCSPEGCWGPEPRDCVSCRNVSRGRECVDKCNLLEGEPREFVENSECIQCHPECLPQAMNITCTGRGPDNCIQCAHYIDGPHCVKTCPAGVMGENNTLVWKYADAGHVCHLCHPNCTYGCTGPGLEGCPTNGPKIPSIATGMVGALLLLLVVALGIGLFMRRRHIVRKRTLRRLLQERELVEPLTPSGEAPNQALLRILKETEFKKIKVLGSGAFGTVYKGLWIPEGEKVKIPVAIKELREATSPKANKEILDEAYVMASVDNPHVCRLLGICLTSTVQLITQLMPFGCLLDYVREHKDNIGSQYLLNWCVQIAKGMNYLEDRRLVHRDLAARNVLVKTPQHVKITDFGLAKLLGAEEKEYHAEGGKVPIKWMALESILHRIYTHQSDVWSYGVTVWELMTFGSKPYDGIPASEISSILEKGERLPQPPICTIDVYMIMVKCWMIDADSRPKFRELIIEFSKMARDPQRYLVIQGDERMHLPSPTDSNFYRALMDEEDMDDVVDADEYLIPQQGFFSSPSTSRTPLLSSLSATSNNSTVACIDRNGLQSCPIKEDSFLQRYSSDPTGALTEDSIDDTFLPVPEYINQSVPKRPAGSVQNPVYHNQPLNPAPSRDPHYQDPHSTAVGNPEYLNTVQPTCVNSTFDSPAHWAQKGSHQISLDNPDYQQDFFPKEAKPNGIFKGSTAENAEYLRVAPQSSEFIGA
test details: Detection of phosphorylated EGFR (pEGFR) in EGF-stimulated A431 cells (AlphaLISA)
test settings: A431 cells (10% FBS), 4 hours with compound, then EGF 30 ng/mL for 10 minutes
Counter-ions that a name gives are not always drawn.
// NB: equality with 400 nM counts as F; only IC50 strictly below is T

These solved cases illustrate the format of a correct answer.
CC#CC(=O)Nc1cc2c(Nc3ccc(Oc4ccn5ncnc5c4)c(Cl)c3)ncnc2cc1OCCN(C)C [Compound 200] = T
CCOc1cc2ncnc(Nc3ccc(Oc4ccn5ncnc5c4)c(C)c3)c2cc1NC(=O)C#CCN1CCN(C)CC1 [Compound 208, triformate] = F

Q) Does CC#CC(=O)Nc1cc2c(Nc3ccc(Oc4cnn(C)c(=O)c4)c(C)c3)ncnc2cc1OCCN(C)C [Compound 201] have IC50 strictly under 400 nM?
A) F

Q) Does CC#CC(=O)Nc1cc2c(Nc3ccc(Oc4ccn5ncnc5c4)c(C)c3)ncnc2cc1OCCN(C)C [Compound 150] have IC50 strictly under 400 nM?
A) T

Q) Does CC#CC(=O)Nc1cc2c(Nc3ccc(Oc4ccn5ncnc5c4)c(C)c3)ncnc2cn1 [Compound 199] have IC50 strictly under 400 nM?
A) T

Q) Does CC#CC(=O)Nc1cc2c(Nc3ccc(Oc4ccn5ncnc5c4)c(C)c3)ncnc2cc1OCCN1CCN(C)CC1 [Compound 203] have IC50 strictly under 400 nM?
A) T

Q) Does CC#CC(=O)Nc1cc2c(Nc3ccc(Oc4ccc(C)nc4)c(C)c3)ncnc2cc1OCCN(C)C [Compound 186] have IC50 strictly under 400 nM?
A) T

Q) Does CC#CC(=O)Nc1cc2c(Nc3ccc(Cc4ccn5ncnc5c4)c(F)c3)ncnc2cc1OCCN(C)C [Compound 202] have IC50 strictly under 400 nM?
A) F

Q) Does CC#CC(=O)Nc1cc2c(Nc3ccc(Oc4ccn5ncnc5c4)c(C)c3F)ncnc2cc1OCCN(C)C [Compound 180] have IC50 strictly under 400 nM?
A) F

Q) Does Cc1cc(Nc2ncnc3ccc(NC(=O)C#CC4(C)CC4)cc23)ccc1Oc1ccn2ncnc2c1 [Compound 185] have IC50 strictly under 400 nM?
A) F

Q) Does CC#CC(=O)Nc1ccc2ncnc(Nc3ccc(Oc4ccc5nccnc5c4)c(C)c3)c2c1 [Compound 211] have IC50 strictly under 400 nM?
A) T

Q) Does Cc1cc(Nc2ncnc3cc(OCCN(C)C)c(NC(=O)C#CC4(C)CC4)cc23)ccc1Oc1ccn2ncnc2c1 [Compound 190] have IC50 strictly under 400 nM?
A) F

Q) Does CC#CC(=O)Nc1cc2c(Nc3cc(Cl)c(Oc4ccn5ncnc5c4)cc3F)ncnc2cc1OCCN(C)C [Compound 197] have IC50 strictly under 400 nM?
A) F

Q) Does CNCCOc1cc2ncnc(Nc3ccc(Oc4ccn5ncnc5c4)c(C)c3)c2cc1NC(=O)C#CC1CC1 [Compound 187] have IC50 strictly under 400 nM?
A) F

Q) Does Cc1cc(Nc2ncnc3cc(OCCN(C)C)c(NC(=O)C#CC4CC4)cc23)c(F)cc1Oc1ccn2ncnc2c1 [Compound 181, formate] have IC50 strictly under 400 nM?
A) F
